# Tested on: E. multilocularis metacestode vesicles
# experimentalDetails: Phosphoglucose isomerase (PGI) release assay (damage-marker release) on metacestode vesicles
# Format: cell-based, Echinococcus multilocularis
# assayConditions: confirmation screen, 10 μM, triplicates, mean, 5 days
readout: PGI d5 (relative PGI release) (%)
One number for each entry, in %.

>>> print(df.to_string())
                                   compound  displayunit  reported
0  CC(C)(C)c1cc(C(=O)/C(C#N)=N/Nc2cccc(Cl)c2)no1            %      6.08
1  O=C(Nc1ccc(-c2ccccc2)cc1)C1=C(O)C(Cc2ccccc2)OC1=O (stereo not shown)            %      0.17
2  CC(C)N(c1cc(-c2ccccc2)sc1C(=O)O)C(=O)[C@H]1CC[C@H](C)CC1            %      0.59
3            COc1ccc2nc(-c3ccccc3)cc(O)c2c1            %      0.13
4       C=C(C)n1c(=O)n(Cc2ccccc2C)c2ccccc21            %   -0.0635

Below are some compounds; for each one, tell me its PGI d5 (relative PGI release).
1. CCc1nc(N)nc(N)c1C#CC(C)c1cc(OC)cc(-c2ccncc2)c1 (stereo not shown)
2. O=C(/C(=C/c1ccc(Cl)cc1Cl)n1ccnc1)c1ccc(Cl)cc1

1: -0.46; 2: 0.16

# batch: return PGI d5 (relative PGI release) for each of the 2 compounds below
1. COC(=O)Nc1nc2ccc([S+]([O-])c3ccccc3)cc2[nH]1 (stereo not shown) [oxfendazole, reference compound]
2. O=C(Nc1cccc(C2=NCCN2)c1)c1ccc(-c2ccc(C(=O)Nc3cccc(C4=NCCN4)c3)cc2)cc1

5.40
-0.08

Give PGI d5 (relative PGI release) for each listed item.
1. O=C(c1ccc(F)cc1)N1CCN2C(=O)c3ccccc3C12c1ccccc1 (stereo not shown)
2. O=C(CCCC(F)(F)F)N1CCC(c2nc(-c3nccs3)no2)CC1
3. Cc1cc(O)c2c(c1)C(=O)c1c(I)c(C)c(I)c(O)c1C2=O
4. CCOCc1nc2c(N)nc3ccccc3c2n1CC(C)(C)O

1: 0.55; 2: -0.08; 3: 10.14; 4: 0.18

Here are 6 compounds. What values of PGI d5 (relative PGI release) were reported for them?
1. O=C(Nc1ccc(Cl)c(C(F)(F)F)c1)C(CCCl)C(=O)Nc1ccc(Cl)c(C(F)(F)F)c1
2. Oc1cccc(C(Nc2nccs2)c2ccc3cccnc3c2O)c1 (stereo not shown)
3. NS(=O)(=O)c1ccc(NC(=O)NC(c2ccccc2)c2ccccc2)cc1
4. CCCCOC(=O)Nc1cc2nc(C3CCCCC3)[nH]c2cc1N(CC)CC
5. O=C(Cc1ccccc1F)Nc1nc2ccccc2[nH]1
6. O=C(NNC(=S)Nc1ccc(Cl)cc1)c1ccncc1

-0.17
0.17
-0.15
-0.74
0.17
0.0543

====

# Test system: E. multilocularis metacestode vesicles
# experimentalDetails: Metacestode vesicle viability assay (ATP, CellTiter-Glo)
# Format: cell-based, Echinococcus multilocularis
# assayConditions: overview screen, 10 μM, singlets, 12 days, relative to DMSO control
readout: Viability d12 (relative viability) (%)
Answers are plain numbers, in %.

Below: 3 molecules and their reported Viability d12 (relative viability).
                                   molecule                              targetdesc  reported
0  O=C(c1ccc(F)cc1)N1CCN2C(=O)c3ccccc3C12c1ccccc1 (stereo not drawn)  E. multilocularis metacestode vesicles   23.1723
1  CSC[C@H]1CN(Cc2c[nH]c3c(N)ncnc23)C[C@@H]1O  E. multilocularis metacestode vesicles   59.0324
2  COc1ccc(C[C@@H](C)[C@@H](C)Cc2ccc(OC)c(OC)c2)cc1OC  E. multilocularis metacestode vesicles   132.486

Would you mind giving Viability d12 (relative viability) for every molecule in the list below?
1. CCc1cc(Nc2cc(=O)n(CCN3CCN(C(=O)c4ccccc4)CC3)c(=O)[nH]2)ccc1C
2. C=C(C)[C@@H]1CC[C@]2(C(=O)O)CC[C@]3(C)[C@H](CC[C@@H]4[C@@]5(C)CC[C@H](O)C(C)(C)[C@@H]5CC[C@]43C)[C@@H]12
3. CCc1cc(Cc2cnc(N)nc2N)cc2c1N(C)CCC2C (stereo not drawn)
4. COc1ccc(SC(=O)N[C@H](CCC(=O)O)C(=O)O)cc1

1. 104.622
2. 121.139
3. 27.4864
4. 126.077

Please give Viability d12 (relative viability) for each item listed below.
1. C[C@H]1CC[C@]2(NC1)O[C@H]1C[C@H]3[C@@H]4CC[C@H]5C[C@@H](O)CC[C@]5(C)[C@H]4CC[C@]3(C)[C@H]1[C@@H]2C.Cl
2. CCc1cc(CCCOc2c(C)cc(-c3noc(C(F)(F)F)n3)cc2C)on1
3. O=C(Cn1cnc2ccccc2c1=O)Nc1ccccc1

243.729
121.169
139.913

Hello, I would appreciate it if you could give Viability d12 (relative viability) for each entry below.
1. CN1c2ccc(Cl)cc2N(c2ccccc2)C(=O)c2cn(Cc3ccc(CN4CCOCC4)cc3)nc21
2. Nc1nc(NC2Cc3ccc(F)cc3C2)nc(N2CCCCC2)n1 (stereo not drawn)
3. Nc1ccc2oc(=O)ccc2c1I
4. Nc1nc2c(ncn2/C=C2/CC2(CO)CO)c(=O)[nH]1
5. c1ccc(Cn2c(-c3ccccn3)nc3ccccc32)cc1
6. CCC(C)n1ncn(-c2ccc(N3CCN(c4ccc(OCC5COC(Cn6cncn6)(c6ccc(Cl)cc6Cl)O5)cc4)CC3)cc2)c1=O (stereo not drawn)

[123.597, 110.365, 90.9948, 144.056, 16.9499, 37.4902]

List the reported Viability d12 (relative viability) of each molecule below.
1. Cc1cccc(C)c1C(=O)Nc1nc(-c2ccccn2)cc2ccccc12
2. CCc1cc(O)c(Oc2ccc(C(N)=O)cc2F)cc1F

[99.5465, 125.644]

====

I'd appreciate it if you could supply PGI d5 (relative PGI release) values for the items below.
# Test system: E. multilocularis metacestode vesicles
# experimentalDetails: Phosphoglucose isomerase (PGI) release assay (damage-marker release) on metacestode vesicles
# Type: cell-based, Echinococcus multilocularis
# assayConditions: overview screen, 10 μM, singlets, 5 days, relative to 0.1 % Triton X-100, DMSO subtracted
Numbers only, in %.

molecule	PGI d5 (relative PGI release) [%]
O=S(=O)(NCB(O)O)c1cc2c(Cl)ccc(Cl)c2s1 [MMV1580841]	-1.0927
O=C(Cc1ccccc1F)Nc1nc2ccccc2[nH]1 [MMV1578576]	4.048
C=C[C@]1(C)C[C@@H](OC(=O)CS[C@@H]2C[C@H]3CC[C@@H](C2)N3C)[C@]2(C)[C@H](C)CC[C@]3(CCC(=O)[C@H]32)[C@@H](C)[C@@H]1O [MMV1633674]	-1.377
Cn1cncc1[C@@](N)(c1ccc(Cl)cc1)c1ccc2c(c1)c(-c1cccc(Cl)c1)cc(=O)n2C [MMV658803]	0.7883
CCCNc1ccc(S(=O)(=O)Nc2cc(C)on2)cc1 [MMV1782216]	-2.087
O=C(Nc1nnc(-c2ccc(Cl)cc2)o1)c1ccc(F)cc1 [MMV1782140]	-3.764
Cc1cc(-c2ccccc2)c(C(=O)C(=O)Nc2ccc(N3CCN(c4ncc(F)cn4)CC3)cc2)n1C [MMV1782354]	1.821
CC(=N)N1CC[C@H](SC2=C(C(=O)O)N3C(=O)[C@@H]([C@@H](C)O)[C@H]3C2)C1 [MMV1582382]	-2.073
CCCCCOc1ccc(/C=C2\Oc3c(ccc(O)c3O)C2=O)c(O)c1 [MMV1580851]	1.174
CCOC(=O)/C=C/[C@H](C[C@@H]1CCNC1=O)NC(=O)[C@H](CC)n1cccc(NC(=O)c2cc(C)on2)c1=O [MMV1782112]	0.1675

Report PGI d5 (relative PGI release) for each item below.
1. C[C@@H](c1nc(-c2ccc(C#N)cc2)cs1)[C@](O)(Cn1cncn1)c1ccc(F)cc1F [MMV1634362]
2. CCc1cc(Nc2cc(=O)n(CCN3CCN(C(=O)c4ccccc4)CC3)c(=O)[nH]2)ccc1C [MMV1634383]
3. C[C@@H]1O[C@@H]1P(=O)(O)O [MMV002354]
4. NC(=O)c1ccccc1NC(=O)c1ccc(C(=O)Nc2ccccc2C(N)=O)cc1 [MMV508427]

1: -1.682; 2: 0.8629; 3: 4.505; 4: -1.548

====

For each record, write down the corresponding PGI d12 (relative PGI release).
# System: E. multilocularis metacestode vesicles
# experimentalDetails: Phosphoglucose isomerase (PGI) release assay (damage-marker release) on metacestode vesicles
# Assay type: cell-based, Echinococcus multilocularis
# assayConditions: overview screen, 10 μM, singlets, 12 days, relative to 0.1 % Triton X-100, DMSO subtracted
Give bare numbers, in %.

Below, each entry is followed by its recorded PGI d12 (relative PGI release) result.
>>> df
                                   compound                         readout  displayunit  reported
0  Oc1c(C(Nc2nc3ccccc3s2)c2ccc(OC(F)F)cc2)ccc2cccnc12 (centres unmarked)  PGI d12 (relative PGI release)            %    0.4013
1           Nc1nc(=O)c(Br)c(-c2ccccc2)[nH]1  PGI d12 (relative PGI release)            %   38.5177
2  COc1ccc(CNC(=O)C(NS(=O)(=O)c2ccc3nc(C)sc3c2)C(C)C)cc1 (centres unmarked)  PGI d12 (relative PGI release)            %   -9.3435
3  O=C(N[C@H](Cc1cccc2ccccc12)C(=O)NCCc1c[nH]cn1)C1Cc2ccccc2C1  PGI d12 (relative PGI release)            %  -25.3398
4  N#C/C(=C1/SC[C@@H](c2ccc(Cl)cc2Cl)S1)n1ccnc1  PGI d12 (relative PGI release)            %  -22.8965
5  CC[C@@]1(O)C(=O)OCc2c1cc1n(c2=O)Cc2cc3c(CN(C)C)c(O)ccc3nc2-1.Cl  PGI d12 (relative PGI release)            %    -2.724
6  COc1ccc(SC(=O)N[C@H](CCC(=O)O)C(=O)O)cc1  PGI d12 (relative PGI release)            %     -2.09

// next item, PGI d12 (relative PGI release) requested
State its PGI d12 (relative PGI release) for this compound: `O=c1nc(N2CCN(CC3CCCCC3)CC2)sc2c([N+](=O)[O-])cc(C(F)(F)F)cc12` 89.9274
